- METHOD DESCRIPTION: Chemical stability in PBS buffer at pH 6.8 assessed as compound hydrolysis at 20 mM measured after 7 hrs by RP-HPLC analysis
- Format: physicochemical
- STUDY CONDITIONS: read-out: Drug degradation
PROPERTY: degraded at 7 h, 20000 µM
Could you kindly put the unit after your number?

// recorded degraded at 7 h, 20000 µM for `CCN(CC)CC.O=c1[nH]c(OP(=O)(O)Oc2ccccc2)nc2c1ncn2[C@@H]1O[C@H](CO)[C@@H](O)[C@H]1O` : 40%

---

- METHOD DESCRIPTION: Chemical stability in PBS buffer at pH 4.8 assessed as compound hydrolysis at 20 mM measured after 7 hrs by RP-HPLC analysis
- Assay type: physicochemical
- STUDY CONDITIONS: read-out: Drug degradation
PROPERTY: degraded at 7 h, 20000 µM (%)
# output: bare number, implied unit %

// recorded degraded at 7 h, 20000 µM for `CCN(CC)CC.O=c1[nH]c(OP(=O)(O)Oc2ccccc2)nc2c1ncn2[C@@H]1O[C@H](CO)[C@@H](O)[C@H]1O` : 50

Ref: ChEMBL document CHEMBL5032532
